The measurements presented in this section are drawn from PubChem BioAssay (EPA / NIEHS).

# experimental.system: Bile acid receptor (Homo sapiens) (UniProt Q96RI1)
# Sequence (Q96RI1 whole entry, looked up): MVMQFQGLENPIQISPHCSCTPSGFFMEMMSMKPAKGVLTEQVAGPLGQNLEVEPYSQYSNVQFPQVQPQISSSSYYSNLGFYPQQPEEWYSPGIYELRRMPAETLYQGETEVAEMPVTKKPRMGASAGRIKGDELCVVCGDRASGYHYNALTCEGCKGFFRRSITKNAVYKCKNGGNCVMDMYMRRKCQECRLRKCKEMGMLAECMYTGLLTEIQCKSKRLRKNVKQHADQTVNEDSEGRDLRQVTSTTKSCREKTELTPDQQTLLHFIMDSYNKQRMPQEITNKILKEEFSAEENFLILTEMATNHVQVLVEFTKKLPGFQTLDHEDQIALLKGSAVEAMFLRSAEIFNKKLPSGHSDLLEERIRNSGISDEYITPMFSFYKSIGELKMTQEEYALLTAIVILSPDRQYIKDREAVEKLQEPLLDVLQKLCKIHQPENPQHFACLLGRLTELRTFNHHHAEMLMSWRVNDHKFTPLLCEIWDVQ
# protocol.summary: ATG_FXR_TRANS: Attagene TRANS-FACTORIAL HepG2 Assay for Farnesoid X Receptor (FXR) (AID 2282979);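 further: hits raise reporter mRNA above DMSO so AC50 marks FXR activation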
# condition.description: HepG2 Attagene TRANS FXR-GAL4 reporter transcription
Results filed as inconclusive are left out. The source made the active and inactive calls. How the source made its calls: active means hit-call score of the fitted dose curve at least 0.9, where 1 is the maximum; inconclusive means response in the unintended direction; inactive means score below 0.9.
Choose the fitting class; nothing outside True (active), False (inactive) is accepted.

The examples below pair each entry with its known result.
>>> classification("CC1(C)COCN1")
"False"
>>> classification("O=C1c2ccccc2C(=O)c2c(O)ccc(O)c21")
"False"
>>> classification("O=C(CS)OCCOC(=O)CS")
"False"
>>> classification("O=C(O)COCC(=O)O")
"False"
>>> classification("COC(C)(C)CC(C)=O")
"False"
>>> classification("Oc1ccc2cc(SSc3ccc4cc(O)ccc4c3)ccc2c1")
"False"
>>> classification("CCCCC(CC)COC(=O)c1ccc(O)cc1 (stereo not given)")
"False"
>>> classification("C=C(C)C(=O)OCC(CC)(COC(=O)C(=C)C)COC(=O)C(=C)C")
"False"
>>> classification("CCc1cc(Cc2cc(CC)cc(C(C)(C)C)c2O)c(O)c(C(C)(C)C)c1")
"False"
>>> classification("OCc1ccc(Cl)cc1Cl")
"False"

Tell me the recorded outcome of this test for `CSc1c(Cl)c(Cl)c(Cl)c(Cl)c1Cl` . False

Tell me the recorded outcome of this test for `CC[N+](C)(CC)CC` . False

Tell me the recorded outcome of this test for CC(C)C(OC(=O)c1ccccc1)C(C)(C)COC(=O)c1ccccc1 (stereo not given) . True

Tell me the recorded outcome of this test for `COc1cc(Cl)c(OC)cc1N` . False

Tell me the recorded outcome of this test for `O=C1CCCC=CCCCCCCCCCC1` . False

---

# Read-out: Monokine induced gamma interferon (MIG), CXCL9 (gene 4283)
# protocol.summary: BSK_CASM3C_MIG: BioMAP Diversity Plus: CASM3C Assay for Monokine induced gamma interferon (MIG) Biomarker Activity (AID 2283048);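 further: MIG protein level measured by ELISA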
# condition.description: primary human coronary artery smooth muscle cells; actives raise or lower the signal
Calls of active or inactive are those of the source. How the source made its calls: active means hit-call score of the fitted dose curve at least 0.9, where 1 is the maximum; inactive means score below 0.9.
Choose the fitting class; nothing outside active, inactive is accepted.

The examples below pair each entry with its known result.
>>> classification("O=C1OC[C@H](Cc2cccc(O)c2)[C@H]1Cc1cccc(O)c1")
"inactive"
>>> classification("CC(C=O)Cc1ccc(C(C)(C)C)cc1 (configuration not stated)")
"active"
>>> classification("CCN(CC)C(=O)N(CC)CC")
"inactive"

Tell me the recorded outcome of this test for `O=C1OC2(c3ccccc31)c1ccc(O)c(Br)c1Oc1c2ccc(O)c1Br` . inactive

Tell me the recorded outcome of this test for `CSCCC=O` . inactive

Tell me the recorded outcome of this test for `O=CN1CCOCC1` . inactive

Tell me the recorded outcome of this test for `CC(=O)c1c(C)c([N+](=O)[O-])c(C(C)(C)C)c([N+](=O)[O-])c1C` . inactive

---

# Read-out: Transforming growth factor beta 1 (TGFb1), TGFB1 (gene 7040)
# protocol.summary: BSK_KF3CT_TGFb1: BioMAP Diversity Plus: KF3CT Assay for Transforming growth factor beta 1 (TGFb1) Biomarker Activity (AID 2283072)
# condition.description: primary human keratinocytes with fibroblasts; actives raise or lower the signal
Calls of active or inactive are those of the source. The calls were made as follows: active = hit-call score of the fitted dose curve at least 0.9, where 1 is the maximum; inactive = score below 0.9.
Choose the fitting class; nothing outside y (active), n (inactive) is accepted.

Tell me the recorded outcome of this test for `Cc1cc(CCC(=O)OCCOCCOCCOC(=O)CCc2cc(C)c(O)c(C(C)(C)C)c2)cc(C(C)(C)C)c1O` . n

Tell me the recorded outcome of this test for `O=C1OC[C@H](Cc2cccc(O)c2)[C@H]1Cc1cccc(O)c1` . n

Tell me the recorded outcome of this test for `C=C(C)C(=O)OCCOCCOCCOC(=O)C(=C)C` . n
